The measured values listed here are drawn from patent US10799507B2.

biological target: JAK3 (Homo sapiens (Human), UniProt P52333); assay: JAK kinase assay (HTRF), JAK3; settings: catalytic domain, ATP at Km (2 μM)
Sequence (P52333 822-1111): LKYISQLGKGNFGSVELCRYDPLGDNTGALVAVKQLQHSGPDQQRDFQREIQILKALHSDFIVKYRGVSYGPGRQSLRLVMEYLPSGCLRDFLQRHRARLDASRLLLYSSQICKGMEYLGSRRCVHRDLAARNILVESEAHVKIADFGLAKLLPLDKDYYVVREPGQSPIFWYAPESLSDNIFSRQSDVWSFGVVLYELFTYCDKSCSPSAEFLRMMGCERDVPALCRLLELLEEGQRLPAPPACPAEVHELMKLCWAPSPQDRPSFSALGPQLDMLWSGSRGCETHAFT
pEC50: −log10 of the molar value.

molecule | experimental.target | pEC50
C[C@H](NC(=O)[C@H]1CCN(c2ncnc3[nH]ccc23)CC12CC2)[C@H](O)c1ccc(C#N)cc1 [Example 126] | JAK3 (Homo sapiens (Human), UniProt P52333) | 7.53
O=C(NCC1(O)CCC1)[C@H]1CCN(c2ncnc3[nH]ccc23)CC12CC2 [Example 68] | JAK3 (Homo sapiens (Human), UniProt P52333) | 7.53
N#Cc1cccc(CNC(=O)C2CCN(c3ncnc4[nH]ccc34)CC23CC3)c1 (centres unmarked) [Example 70] | JAK3 (Homo sapiens (Human), UniProt P52333) | 7.49
O=C(NCC1(CO)CC(F)(F)C1)C1CCN(c2ncnc3[nH]ccc23)CC12CC2 (centres unmarked) [Example 35] | JAK3 (Homo sapiens (Human), UniProt P52333) | 8.07
N#CCC1(COC(=O)C2CCN(c3ncnc4[nH]ccc34)CC23CC3)CC1 (centres unmarked) [Example 164] | JAK3 (Homo sapiens (Human), UniProt P52333) | 7.72
NS(=O)(=O)c1cccc(CNC(=O)C2CCN(c3ncnc4[nH]ccc34)CC23CC3)c1 (centres unmarked) [Example 55] | JAK3 (Homo sapiens (Human), UniProt P52333) | 7.87
COc1cc(C#N)ccc1CNC(=O)[C@H]1CCN(c2ncnc3[nH]ccc23)CC12CC2 [Example 71] | JAK3 (Homo sapiens (Human), UniProt P52333) | 7.20
COc1cc(CNC(=O)[C@H]2CCN(c3ncnc4[nH]ccc34)CC23CC3)ccc1C#N [Example 93] | JAK3 (Homo sapiens (Human), UniProt P52333) | 7.13

* * *

Reported pEC50 is given for each of the following molecules.
molecular target: JAK3 (Homo sapiens (Human), UniProt P52333); test: JAK kinase assay (HTRF), JAK3; conditions: catalytic domain, ATP at Km (2 μM)
pEC50: −log10 of the molar value.

molecule | pEC50
O=C(OCC1(CO)CC1)[C@H]1CCN(c2ncnc3[nH]ccc23)CC12CC2 | 7.69
C[C@@](CO)(NC(=O)[C@H]1CCN(c2ncnc3[nH]ccc23)CC12CC2)c1ccc(C#N)cn1 | 7.67
C[C@H](NC(=O)[C@H]1CCN(c2ncnc3[nH]ccc23)CC12CC2)[C@@H](O)C1CCCC1 | 8.64
COc1cncc([C@@H](C)NC(=O)C2CCN(c3ncnc4[nH]ccc34)CC23CC3)c1 (stereo partly shown) | 6.80
O=C(NC[C@@H](O)C1CCCC1)[C@H]1CCN(c2ncnc3[nH]ccc23)CC12CC2 [Example 32] | 8.08
C[C@H](NC(=O)[C@H]1CCN(c2ncnc3[nH]ccc23)CC12CC2)[C@@H](O)c1ccccn1 | 6.79
O=C(N[C@H](CO)C(=O)OC1CCCC1)[C@H]1CCN(c2ncnc3[nH]ccc23)CC12CC2 | 7.23
O=C(NC[C@@H](O)C1CCCCC1)[C@H]1CCN(c2ncnc3[nH]ccc23)CC12CC2 | 8.47
O=C(NC[C@H](O)C1CCC1)[C@H]1CCN(c2ncnc3[nH]ccc23)CC12CC2 | 7.87
C[C@@H](NC(=O)[C@H]1CCN(c2ncnc3[nH]ccc23)CC12CC2)c1ccc(C#N)cc1F | 6.80
CC(NC(=O)C1CCN(c2ncnc3[nH]ccc23)CC12CC2)c1ccc(F)cc1 (stereo not shown) | 7.66
O=C(NCC1CC(F)(F)C1)C1CCN(c2ncnc3[nH]ccc23)CC12CC2 (stereo not shown) | 7.74
O=C(OCC1(CO)CCC1)[C@H]1CCN(c2ncnc3[nH]ccc23)CC12CC2 | 8.18
O=C(N[C@H](CO)Cc1ccccc1)C1CCN(c2ncnc3[nH]ccc23)CC12CC2 (stereo partly shown) | 7.28
O=C(N[C@H](CO)C(=O)OCC1(CO)CC1)[C@H]1CCN(c2ncnc3[nH]ccc23)CC12CC2 | 7.32
O=C(OCC1(CO)CCCC1)[C@H]1CCN(c2ncnc3[nH]ccc23)CC12CC2 | 8.51
COc1cccc(CNC(=O)C2CCN(c3ncnc4[nH]ccc34)CC23CC3)c1 (stereo not shown) | 7.15
O=C(NC[C@@H](O)c1ccc(F)cn1)[C@H]1CCN(c2ncnc3[nH]ccc23)CC12CC2 | 7.58
COc1cc(C#N)ccc1[C@H](CO)NC(=O)[C@H]1CCN(c2ncnc3[nH]ccc23)CC12CC2 | 6.81
O=C(N[C@H](CO)C1CCCCC1)[C@H]1CCN(c2ncnc3[nH]ccc23)CC12CC2 | 6.79
O=C(N[C@@H](CO)c1ccc(F)cc1CO)[C@H]1CCN(c2ncnc3[nH]ccc23)CC12CC2 | 7.14
N#Cc1cccc([C@H](O)CNC(=O)[C@H]2CCN(c3ncnc4[nH]ccc34)CC23CC3)c1 | 7.35
O=C(NC[C@H](O)C1CCCCC1)[C@H]1CCN(c2ncnc3[nH]ccc23)CC12CC2 | 8.43
C[C@@H](NC(=O)C1CCN(c2ncnc3[nH]ccc23)CC12CC2)c1cccc(C#N)c1 (stereo partly shown) | 7.13
O=C(N[C@@H](CO)c1ccc(F)cc1)[C@H]1CCN(c2ncnc3[nH]ccc23)CC12CC2 | 8.24
C[C@H](NC(=O)[C@H]1CCN(c2ncnc3[nH]ccc23)CC12CC2)[C@H](O)c1ccc(F)cn1 | 7.24
O=C(N[C@@H](CO)C1CCC1)[C@H]1CCN(c2ncnc3[nH]ccc23)CC12CC2 | 6.79
O=C(OCc1ccccc1)[C@H](CO)NC(=O)[C@H]1CCN(c2ncnc3[nH]ccc23)CC12CC2 | 7.04
N#CCC1(CNC(=O)C2CCN(c3ncnc4[nH]ccc34)CC23CC3)CC1 (stereo not shown) | 7.34
O=C(NCC1CC(F)(F)C1)[C@H](O)CNC(=O)[C@H]1CCN(c2ncnc3[nH]ccc23)CC12CC2 (single isomer, unassigned) | 7.29
C[C@@H](NC(=O)C1CCN(c2ncnc3[nH]ccc23)CC12CC2)c1ccccc1 (stereo partly shown) | 6.95
